Source: the supplement of paper PMC10567573

B1: TCEB3B (parent)
chain: STTALGDKQRKANESKGTRESWDS

Variants of: B1
Test: protein stability index of a GFP-peptide fusion (GPS, HEK-293T) (PSI 1-6); higher = more stable;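 note: lentivirally expressed fusions sorted by FACS into six bins by GFP to DsRed ratio, PSI derived from sequencing read proportions per bin multiplied by bin number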
Conditions: c terminus: a fixed tail appended
readout type: protein stability index

Past entries and their recorded results:
The variant listed as `STTALGDKQRKANESKRTRESWDS` shows protein stability index equal to 3.97

Briefly, protein stability index measured for `STTALGDKQRKAHESKGTRESWDS` : 3.35

Given item `STTALGDKRRKANESKGTRESWDS` , the value recorded as its protein stability index is 3.52

***
Item: `STTALGDKQRKANESKGTRESVDS` | protein stability index: 5.12

According to the records, this variant `STTALGSKQRKANESKGTRESWDS` displays protein stability index of 3.43

Item: `STTACGDKQRKANESKGTRESWDS` | protein stability index: 3.44

Lab note: `WTTALGDKQRKANESKGTRESWDS` gave protein stability index of 2.74

Entry `STTALGDKQRKANEHKGTRESWDS` , protein stability index reported as 3.93
